# Experiment: Metabolic stability in mouse liver microsome assessed as compound remaining at 500 uM incubated for 60 mins in presence of NADPH and G6PDH by LC-MS/MS analysis
# Assay conditions: liver microsomes
Quantity kind: remaining at 1 h, 500 µM (%)
Field: numeric (%). Do not append units.

# get_value(readout='remaining at 1 h, 500 µM', item= O=C(C1CCCCC1)N1CON2CCc3ccccc3C2C1 (stereo unspecified) )
0.2

###

# Experiment: Stability of the compound at pH 1.2 at 5 uM assessed as compound remaining incubated for 5 hrs by LC-MS/MS analysis relative to control
# Type: physicochemical
# Assay conditions: buffer, read-out: Stability
Quantity kind: remaining at 5 h, 5 µM
Please make sure the unit comes right after the number.

# get_value(readout='remaining at 5 h, 5 µM', item= O=C(C1CCCCC1)N1CC(=O)N2CCc3ccccc3C2C1 (configuration not stated) [PRAZIQUANTEL] )
95%

# get_value(readout='remaining at 5 h, 5 µM', item= O=C(C1CCCCC1)N1CON2CCc3ccccc3C2C1 (configuration not stated) )
94.9%
